Cited source: patent US9309242B2

# targetSystem: Ba/F3-FGFR4-transfected cells (Homo sapiens)
# Sequence (P22455 whole entry, change not shown): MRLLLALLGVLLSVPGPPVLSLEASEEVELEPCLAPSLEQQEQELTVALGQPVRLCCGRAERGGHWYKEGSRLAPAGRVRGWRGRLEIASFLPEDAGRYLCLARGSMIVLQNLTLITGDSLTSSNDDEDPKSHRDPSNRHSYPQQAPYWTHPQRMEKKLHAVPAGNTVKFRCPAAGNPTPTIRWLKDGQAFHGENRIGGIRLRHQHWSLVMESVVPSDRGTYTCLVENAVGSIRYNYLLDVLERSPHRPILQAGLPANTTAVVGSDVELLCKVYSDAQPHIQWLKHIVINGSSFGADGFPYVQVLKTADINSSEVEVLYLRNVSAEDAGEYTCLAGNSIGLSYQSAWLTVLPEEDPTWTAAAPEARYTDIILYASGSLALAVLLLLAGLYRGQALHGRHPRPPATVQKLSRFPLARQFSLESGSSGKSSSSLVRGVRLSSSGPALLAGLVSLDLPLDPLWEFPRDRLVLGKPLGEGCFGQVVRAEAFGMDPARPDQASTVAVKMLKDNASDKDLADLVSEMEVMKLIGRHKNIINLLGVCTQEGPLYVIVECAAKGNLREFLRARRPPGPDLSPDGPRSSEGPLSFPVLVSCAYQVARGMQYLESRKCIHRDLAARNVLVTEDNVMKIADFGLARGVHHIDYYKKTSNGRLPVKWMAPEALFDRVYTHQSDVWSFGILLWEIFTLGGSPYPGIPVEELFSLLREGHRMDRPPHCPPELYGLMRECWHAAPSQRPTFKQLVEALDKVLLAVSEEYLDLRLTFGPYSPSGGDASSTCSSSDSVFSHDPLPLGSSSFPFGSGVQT
# testSummary: Ba/F3-FGFR4 cellular proliferation assay, Alamar Blue
# Format: cell-based

>  <compound>
COc1cc(OC)c(Cl)c(/N=c2\ccc3ncc(-c4cnn(C)c4)nc3n2CC2CCC(=O)N2)c1Cl (single isomer, unassigned)

>  <relationQualifier>
=

>  <BAF3-FGFR4 pIC50>
5.89

$$$$
>  <compound>
COc1cc(OC)c(F)c(/N=c2\ccc3ncc(-c4cnn(C)c4)nc3n2CC2CCC(=O)N2)c1F (stereo not shown) [Compound 193]

>  <relationQualifier>
=

>  <BAF3-FGFR4 pIC50>
7.00

$$$$
>  <compound>
CNCCn1/c(=N/c2c(F)cccc2F)ccc2ncc(-c3cnn(C)c3)nc21

>  <relationQualifier>
<

>  <BAF3-FGFR4 pIC50>
5

$$$$
>  <compound>
COc1cc(OC)c(F)c(N(C)c2ccc3ncc(-c4cnn(C)c4)nc3n2)c1F (single isomer, unassigned)

>  <relationQualifier>
=

>  <BAF3-FGFR4 pIC50>
7.15

$$$$
>  <compound>
COc1cc(OC)c(F)c(N(Cc2nn[nH]n2)c2ccc3ncc(-c4cnn(C)c4)nc3n2)c1

>  <relationQualifier>
<

>  <BAF3-FGFR4 pIC50>
5

$$$$
>  <compound>
COc1cc(OC)c(Cl)c(N(Cc2ncc[nH]2)c2ccc3ncc(-c4cnn(C)c4)nc3n2)c1

>  <relationQualifier>
=

>  <BAF3-FGFR4 pIC50>
7.35

$$$$

###

# targetSystem: Ba/F3-FGFR3-transfected cells (Homo sapiens, UniProt P22607)
# Construct: BAF3-FGFR3 (MIN IL3) pIC50; other: minus IL3
# Sequence (P22607 whole entry, change not shown): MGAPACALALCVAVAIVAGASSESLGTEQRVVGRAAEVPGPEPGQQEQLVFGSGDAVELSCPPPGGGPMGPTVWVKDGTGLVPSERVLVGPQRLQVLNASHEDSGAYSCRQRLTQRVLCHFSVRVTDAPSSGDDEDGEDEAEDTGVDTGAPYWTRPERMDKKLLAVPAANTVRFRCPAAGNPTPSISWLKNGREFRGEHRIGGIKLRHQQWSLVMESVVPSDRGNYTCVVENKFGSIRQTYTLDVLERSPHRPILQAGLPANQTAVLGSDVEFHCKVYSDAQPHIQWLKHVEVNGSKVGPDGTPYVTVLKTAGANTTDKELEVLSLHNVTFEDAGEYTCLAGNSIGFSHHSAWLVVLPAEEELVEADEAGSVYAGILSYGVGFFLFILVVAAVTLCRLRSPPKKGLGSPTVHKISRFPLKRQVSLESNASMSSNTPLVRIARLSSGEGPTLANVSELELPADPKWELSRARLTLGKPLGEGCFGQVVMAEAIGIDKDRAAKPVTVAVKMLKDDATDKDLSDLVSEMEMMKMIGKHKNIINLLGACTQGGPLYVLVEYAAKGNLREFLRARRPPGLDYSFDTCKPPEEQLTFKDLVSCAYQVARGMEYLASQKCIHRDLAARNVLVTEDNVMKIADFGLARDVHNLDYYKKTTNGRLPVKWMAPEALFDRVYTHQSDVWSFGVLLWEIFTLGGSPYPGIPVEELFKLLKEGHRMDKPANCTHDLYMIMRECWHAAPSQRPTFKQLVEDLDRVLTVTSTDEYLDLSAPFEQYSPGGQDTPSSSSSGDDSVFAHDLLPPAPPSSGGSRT
# testSummary: Ba/F3-FGFR3 (minus IL3) cellular proliferation assay, Alamar Blue
# Assay type: cell-based
Quick reference for BAF3-FGFR3 (MIN IL3) pIC50 among some compounds
measuredEndpoint: BAF3-FGFR3 (MIN IL3) pIC50

>  <compound>
COc1cc(OC)c(F)c(N(Cc2nccn2C)c2ccc3ncc(-c4cnn(C)c4)nc3n2)c1

>  <targetSystem>
Ba/F3-FGFR3-transfected cells (Homo sapiens, UniProt P22607)

>  <measuredEndpoint>
BAF3-FGFR3 (MIN IL3) pIC50

>  <recordedValue>
7.25

$$$$
>  <compound>
COc1cc(OC)c(Cl)c(N(Cc2ncc[nH]2)c2ccc3ncc(-c4cnn(C)c4)nc3n2)c1Cl

>  <targetSystem>
Ba/F3-FGFR3-transfected cells (Homo sapiens, UniProt P22607)

>  <measuredEndpoint>
BAF3-FGFR3 (MIN IL3) pIC50

>  <recordedValue>
7.65

$$$$
>  <compound>
COc1cc(OC)c(F)c(N(Cc2n[nH]c(=O)o2)c2ccc3ncc(-c4cnn(C)c4)nc3n2)c1

>  <targetSystem>
Ba/F3-FGFR3-transfected cells (Homo sapiens, UniProt P22607)

>  <measuredEndpoint>
BAF3-FGFR3 (MIN IL3) pIC50

>  <recordedValue>
6.42

$$$$
>  <compound>
COc1cc(OC)c(F)c(N(CC2CCC(=O)N2)c2ccc3ncc(-c4cnn(C)c4)nc3n2)c1 (stereo not drawn) [Compound 46]

>  <targetSystem>
Ba/F3-FGFR3-transfected cells (Homo sapiens, UniProt P22607)

>  <measuredEndpoint>
BAF3-FGFR3 (MIN IL3) pIC50

>  <recordedValue>
7.42

$$$$
>  <compound>
COc1cc(OC)c(F)c(N(CC(O)COC(C)C)c2ccc3ncc(-c4cnn(C)c4)nc3n2)c1F (stereo not drawn) [Compound 61]

>  <targetSystem>
Ba/F3-FGFR3-transfected cells (Homo sapiens, UniProt P22607)

>  <measuredEndpoint>
BAF3-FGFR3 (MIN IL3) pIC50

>  <recordedValue>
7.87

$$$$
>  <compound>
COc1cc(OC)c(F)c(N(CC(O)COC(C)C)c2ccc3ncc(-c4cnn(C)c4)nc3n2)c1 (single isomer, unassigned) [Compound 75]

>  <targetSystem>
Ba/F3-FGFR3-transfected cells (Homo sapiens, UniProt P22607)

>  <measuredEndpoint>
BAF3-FGFR3 (MIN IL3) pIC50

>  <recordedValue>
7.75

$$$$
>  <compound>
COc1cc(OC)c(F)c(N(CCO)c2ccc3ncc(-c4cnn(C)c4)nc3n2)c1

>  <targetSystem>
Ba/F3-FGFR3-transfected cells (Homo sapiens, UniProt P22607)

>  <measuredEndpoint>
BAF3-FGFR3 (MIN IL3) pIC50

>  <recordedValue>
7.84

$$$$
>  <compound>
COc1cc(OC)c(Cl)c(N(CC2CCC(=O)N2)c2ccc3ncc(-c4cnn(C)c4)nc3n2)c1Cl (single isomer, unassigned)

>  <targetSystem>
Ba/F3-FGFR3-transfected cells (Homo sapiens, UniProt P22607)

>  <measuredEndpoint>
BAF3-FGFR3 (MIN IL3) pIC50

>  <recordedValue>
6.57

$$$$
>  <compound>
COc1cc(OC)c(F)c(N(Cc2cc(C)no2)c2ccc3ncc(-c4cnn(C)c4)nc3n2)c1

>  <targetSystem>
Ba/F3-FGFR3-transfected cells (Homo sapiens, UniProt P22607)

>  <measuredEndpoint>
BAF3-FGFR3 (MIN IL3) pIC50

>  <recordedValue>
7.64

$$$$
>  <compound>
COc1ccc(Cl)c(N(CC2CCC(=O)N2)c2ccc3ncc(-c4cnn(C)c4)nc3n2)c1Cl (single isomer, unassigned) [Compound 90]

>  <targetSystem>
Ba/F3-FGFR3-transfected cells (Homo sapiens, UniProt P22607)

>  <measuredEndpoint>
BAF3-FGFR3 (MIN IL3) pIC50

>  <recordedValue>
5.19

$$$$
